Known IC50 of a selection of compounds
Test system: HeLa
Experiment: Cytotoxicity against human HeLa cells after 24 hrs by SRB method
// units = µM; emit number, no label

Some solved entries appear below for comparison.
COc1c(-c2ccccc2)cc(OC)c2c1oc1cc(O)c(OCC=C(C)C)cc12 ... 14
COc1cc2oc3c(OC)c(-c4cc(CC=C(C)C)c(O)c(OC)c4)cc(OC)c3c2cc1O ... 10.1
COc1ccc(-c2c(OC)cc(-c3ccc(O)c(CC=C(C)C)c3)c(OC)c2O)cc1OC ... 8.5
COc1cc(-c2c(OC)cc(-c3ccccc3)c(OC)c2O)cc(CC=C(C)C)c1O ... 11.4

Reported IC50 for `COc1cc(-c2c(OC)cc(-c3ccccc3)c(OC)c2O)cc2c1OC(C)(C)CC2` was 11.5

Lab note: `COc1cc(-c2ccc(O)c(O)c2)c(OC)c(O)c1-c1ccc(OCC=C(C)C)c(O)c1` gave IC50 of 2

// recorded IC50 for `COc1cc(-c2c(OC)cc(-c3ccccc3)c(OC)c2O)ccc1OC/C=C(\C)CO` : 8.3
